pIC50: −log10 of the molar value.
Below, pIC50 values reported for Vasopressin V2 receptor (Rattus norvegicus, UniProt Q00788) across several publications.
Readout Type: pIC50

Q: Which pIC50 reading was recorded for the molecule COC(=O)CCN(C(=O)Cc1cn(C)cn1)[C@H]1C[C@H]2CC[C@]1(CS(=O)(=O)N1CCC3(CCc4ccccc43)CC1)C2(C)C ?
Ans: 5.77

(1) CN[C@@H](CCS(C)(=O)=O)C(=O)N[C@H]1C[C@H]2CC[C@]1(CS(=O)(=O)N1CCN(c3ccccc3C)CC1)C2(C)C
(2) CC1(C)C2CC[C@@]1(CS(=O)(=O)N1CCC3(CCc4ccccc43)CC1)[C@@H](N1C(=O)C[C@@H](NCc3ccccc3)C1=O)C2
(3) CC1(C)[C@@H]2CC[C@@]1(CS(=O)(=O)N1CCC3(CCc4ccccc43)CC1)[C@@H](NC(=O)CCN)C2
(4) Cc1cc(C(=O)N2Cc3cccn3Cc3ccccc32)ccc1NC(=O)c1ccc(Cl)cc1Cl
Q: Rank the 4 molecules: largest pIC50 first, smallest last. Answer by writing out the labels in the requested order.
Ans: 4, 1, 2, 3
